# test.description: yeast display, Sf9 membrane polyspecificity reagent, FACS + sequencing; frameworks hold sequencing errors
readout.type: polyreactivity (PSR sort gate)

Recorded results for 10 sequences are shown here.
# macromolecule.sequence, polyreactivity (PSR sort gate)
rows = [
    ("QVQLVESGGGLVQAGGSLRLSCAASGSTFRFYAMGWYRQAPGKERELVAAITWRSGRTSYADSVKGRFTISRDNAKNTVYLQMNSLKPDDTAVYYCAATSVYRYDYWGQGTLVTVSS", "high polyreactivity"),
    ("QVHLVESGGGLVQAGGSLRLSCAASGRIFVFNAMGWYRQAPGKERELVAAINYRGGTYYADSVKGRFTISRDNAKNTVYLQMNSLKPEDTAVYYCNALRQKFQYHDNDYWGQGTQVTVSS", "high polyreactivity"),
    ("QVQLVESGGGLVQAGGSLRLSCAASGFTFQYYAMGWYRQAPGKERELVAVISRSGGRTYYADSVKVRFTISRDNAKNTVYLQMNSLKPEDTAVYYCAALSQPGQSDDKQYDYWGQGTQVTVSS", "high polyreactivity"),
    ("QVHLVESGGGLVQAGGSLRLSCAASGRTFFWYVMGWYRQAPGKERELVATISYGGITYYADSVKGRFTISRDNAKNTVYLQMNSLKPEDTAVYYCAARRSLYYSTVKFDGYYYWGQGTQVTVSS", "high polyreactivity"),
    ("QVQLVESGGGLVQAGGSLRLSCAASGSIFAYYAMGWYRQAPGKERELVAAISRRAGTTYYADSVKGRFTISRDNAKNTVYLQMNSLKPEDTAVYYCAKVSSVWYPRVDYWGQGTQVTVSS", "low polyreactivity"),
    ("QVQLVESAGGLVQAGGSLRLSCAASGNTFWFYGMGWYRPAPGKVRELVAAITSGGSTDYPDSVKGRCTISRDNAKNTVYLQMNSLKPEDTALYYCAAEPVAYYGSSYGYWGQGTQVTVSS", "low polyreactivity"),
    ("QVQLVESGGGLVQAGGSLRLSCAASGRIFGRNAMGWYRQAPGKERELVAAISSSGGRTYYADSVKGRFSISRDNAKNTVYLQMMSLKPEDTAVYYCAAVGSLYYYRYDYWGQGTQVTVSS", "high polyreactivity"),
    ("QVQLVESGGGLVQAGGSLRLSCAASGRTLHYYAMGWYRQAPGKERELVARINWSGGSTYYADSVKGRFTISRDNAKNTVYLQMNSLKPEDTAVYYCARTSYYWSSFDYWGQGTQVTVSS", "high polyreactivity"),
    ("QVQLVESGGGLVQAGGSLSLSCAASGFTFSVYVLGWYRQAPGKERELVAAISSGGDTTYADSVKGRFTISRDNAKNTVYLQMNSLNPVDTAVYYCAADPGYYSWGSSQDDYWGQGTQVTVSS", "low polyreactivity"),
    ("QVQLVESGGGLVQAGGSLRLSCAASGRIFSWYAMGWYRQAPGKERELVADITNGGSTYYADSVKGRFTISRDNAKNTVYLQMNSLKPEDTAVYYCAAAYIHRLGRVLPSVYSIGRDYWGQGTQVTVSS", "low polyreactivity"),
]

Query: Query polyreactivity (PSR sort gate) for QVQLVESGVGLVQAGGSLRLSCAASGSTLFVYTKGWSRQAPGKERELVAAITSSGGSTYYADSVKGRFTISRDKAKNTVYLQMNSLKAQDTAVYYCAAKELGSPYDYWGQGTQVTVSS
Result: high polyreactivity

Query: Query polyreactivity (PSR sort gate) for QVKLVESGGGLVQAGGSLRLSCAASGSTFHVYAMGWYRQEPGKESELVAGITSSGYSTYYADSVKGRFTISRDNAKNTVYLKMNSLKPEDTAFYYCNADIRGPYYYHRYDYWGQGTQVTVSS
Result: low polyreactivity
